Reported relative viability values for the following molecules.
Test system: NCI-H1944
Test: relative viability (nuclei count vs DMSO), 5 days (fraction); higher = more cells survive
Settings: first compound 0.1265 µM
Number, no unit, nothing else.

Cc1sc2c(c1C)C(c1ccc(Cl)cc1)=N[C@@H](CC(=O)OC(C)(C)C)c1nnc(C)n1-2 [JQ1] + NC(=O)Nc1cc(-c2cccc(F)c2)sc1C(=O)N[C@H]1CCCNC1 [AZD7762] (partner 0.2 µM)
0.412
Cc1sc2c(c1C)C(c1ccc(Cl)cc1)=N[C@@H](CC(=O)OC(C)(C)C)c1nnc(C)n1-2 [JQ1] + CC(=O)Nc1cccc(-n2c(=O)n(C3CC3)c(=O)c3c(Nc4ccc(I)cc4F)n(C)c(=O)c(C)c32)c1 [Trametinib] (partner 0.02 µM)
0.394
Cc1sc2c(c1C)C(c1ccc(Cl)cc1)=N[C@@H](CC(=O)OC(C)(C)C)c1nnc(C)n1-2 [JQ1] + CC1(C)CCC(c2ccc(Cl)cc2)=C(CN2CCN(c3ccc(C(=O)NS(=O)(=O)c4ccc(N[C@H](CCN5CCOCC5)CSc5ccccc5)c(S(=O)(=O)C(F)(F)F)c4)cc3)CC2)C1 [Navitoclax] (partner 0.5 µM)
0.922

Could you share which relative viability value was measured for Cc1sc2c(c1C)C(c1ccc(Cl)cc1)=N[C@@H](CC(=O)OC(C)(C)C)c1nnc(C)n1-2 [JQ1] + O=C(CCCCCCC(=O)Nc1ccccc1)NO [Vorinostat] (partner 1 µM) ?
0.405
